meta.source: patent US20210380702A1

# Target entity: T1, recombinant cynomolgus monkey PD-L1 with a C-terminal myc-myc-hexahistidine tag (cynomolgus monkey (Macaca fascicularis))
# T1 construct: also called MfPD-L1-MMH; MfPD-L1-MMH Monomer
# T1 sequence (chain, as listed by the source limits assumed): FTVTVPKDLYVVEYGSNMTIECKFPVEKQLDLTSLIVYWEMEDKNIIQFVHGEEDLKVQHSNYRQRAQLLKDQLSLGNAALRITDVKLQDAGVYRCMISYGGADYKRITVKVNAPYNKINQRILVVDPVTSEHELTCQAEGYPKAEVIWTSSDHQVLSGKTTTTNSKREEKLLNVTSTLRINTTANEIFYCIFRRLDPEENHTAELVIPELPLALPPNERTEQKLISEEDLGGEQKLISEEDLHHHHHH
# Experimental details: SPR (Biacore), mAb captured, 25C
Answer each item with its documented koff.
Give bare numbers, in s⁻¹.

[[record]]
binder = "H2aM8317N (antibody, mouse IgG2, V domains shown, also called H2M8317N) VH: EVQLVESGGGLVQPGGSLRLSCAASGFTVGSNYMNWVRQAPGKGLEWVSVIYSGGSTYYADSVKGRFTISRLTSKNTLYLQMSSLRPEDTAVYYCARGIRGLDVWGQGTTVTVSS VL: DIQMTQSPSSLSASVGDRVTITCRASQTINIYLNWYQQKPGRAPRLLIYAASSLQSGVPSRFSGSGSGTDFTLTISSLQPEDFATYYCHQSYSTPPITFGQGTRLEIK"
unit_of_measure = "s⁻¹"
quantitative_result = 0.0238

[[record]]
binder = "H1H9329P (antibody, human IgG1, V domains shown) VH: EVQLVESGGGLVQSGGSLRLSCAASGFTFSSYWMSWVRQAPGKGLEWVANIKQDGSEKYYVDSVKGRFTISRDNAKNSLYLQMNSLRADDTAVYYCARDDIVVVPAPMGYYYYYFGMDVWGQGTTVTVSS VL: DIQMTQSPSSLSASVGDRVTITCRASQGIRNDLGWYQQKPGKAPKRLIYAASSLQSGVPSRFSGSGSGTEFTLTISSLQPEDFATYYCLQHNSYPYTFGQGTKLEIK"
unit_of_measure = "s⁻¹"
quantitative_result = 0.135


Required: koff, one value per binder below.
1. H2aM8314N (antibody, mouse IgG2, V domains shown, also called H2M8314N) VH: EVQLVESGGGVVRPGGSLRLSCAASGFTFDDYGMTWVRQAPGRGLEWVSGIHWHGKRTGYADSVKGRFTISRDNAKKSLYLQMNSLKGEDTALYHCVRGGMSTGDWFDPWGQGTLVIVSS VL: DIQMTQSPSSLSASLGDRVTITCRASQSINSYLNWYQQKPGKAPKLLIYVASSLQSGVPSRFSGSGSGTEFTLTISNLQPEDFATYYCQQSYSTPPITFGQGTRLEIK
2. H2aM8321N (antibody, mouse IgG2, V domains shown, also called H2M8321N) VH: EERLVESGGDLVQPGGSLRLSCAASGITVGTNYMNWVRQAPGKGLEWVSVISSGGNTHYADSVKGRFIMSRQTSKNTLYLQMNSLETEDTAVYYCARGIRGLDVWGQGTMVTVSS VL: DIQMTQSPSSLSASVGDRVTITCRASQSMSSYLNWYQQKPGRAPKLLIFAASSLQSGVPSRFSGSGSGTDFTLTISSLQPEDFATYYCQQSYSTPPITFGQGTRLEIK

Resp:
["7e-05", 0.00402]
